Values from the kinase profiling compilation of Christmann-Franck et al. (2016)

# System Tested: MAPK14 (human) (UniProt Q16539)
# Sequence (Q16539 whole entry, looked up): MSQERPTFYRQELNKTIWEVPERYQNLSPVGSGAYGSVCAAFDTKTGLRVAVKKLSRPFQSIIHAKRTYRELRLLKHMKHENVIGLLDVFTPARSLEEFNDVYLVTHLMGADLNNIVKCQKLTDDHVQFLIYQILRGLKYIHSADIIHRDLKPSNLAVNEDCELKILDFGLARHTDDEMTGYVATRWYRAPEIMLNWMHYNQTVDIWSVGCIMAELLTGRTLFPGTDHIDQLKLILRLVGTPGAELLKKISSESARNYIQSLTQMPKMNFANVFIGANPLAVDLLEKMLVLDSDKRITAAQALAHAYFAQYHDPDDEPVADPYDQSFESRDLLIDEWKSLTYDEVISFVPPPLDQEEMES
# Test Summary: radiometric filter-binding kinase assay, Kinase HotSpot
# Condition Context: compound 0.5 µM; ATP 10 µM
Quantity Measured: residual activity (%)
Expressed in %, but write only the number.

Some compounds with known residual activity results, for comparison:
CN(C)C[C@H]1CCn2c(c(C3=C(c4cn(C)c5ccccc45)C(=O)NC3=O)c3ccccc32)C1 | 108
O=C(O)/C=C/c1cc(Br)c(Br)c(Br)c1Br | 99.5
COc1ccc(CNC(=O)Nc2ncc([N+](=O)[O-])s2)cc1 | 104
CCn1cnc2c(Nc3cccc(Cl)c3)nc(N[C@@H]3CCCC[C@@H]3N)nc21 | 100
Cn1cnc2cc3c(Nc4cccc(Br)c4)ncnc3cc21 | 93.6
CC(C)[C@H](CO)Nc1nc(Nc2cc(N)cc(Cl)c2)c2ncn(C(C)C)c2n1 | 98.9
O=C1Cc2c([nH]c3ccc(Br)cc23)-c2ccccc2N1 | 93
O=C1NC(=O)/C(=C\c2ccc3nccnc3c2)S1 | 92.9
O=C(CCCc1ccc(-c2ccccc2F)cc1)Nc1ccc(O)cc1 | 89
COc1cc2ncc(-c3ccccc3)nc2cc1OC | 122

// sample COc1cc2ncnc(N3CCN(C(=O)Nc4ccc(Oc5ccccc5)cc4)CC3)c2cc1OC , its residual activity was 81

Short answer for Nc1nnc2[nH]c3ccccc3nc1-2 : residual activity was 96.6

residual activity reported for this compound CN([C@@H](Cc1ccc(OS(=O)(=O)c2cccc3cnccc23)cc1)C(=O)N1CCN(c2ccccc2)CC1)S(=O)(=O)c1cccc2cnccc12 : 91

For record COc1ccc(OC)c2c(=S)c3ccccc3[nH]c12 the listed residual activity is 104

// O=C1NC(=O)C(c2c[nH]c3ccccc23)=C1c1c[nH]c2ccccc12 : residual activity value = 109
